Value source: paper PMC8347464

Recorded melting point for the following molecules

Asked: Please give measured melting point of the following entry: CC(=O)c1ccc(N2CCN(CCCCN3C(=O)NC4(CCCc5ccccc54)C3=O)CC2)cc1 (racemic)
Given back: 168.8 to 170.2 °C

Asked: Tell me melting point reported for CC(=O)c1ccc(N2CCN(CCCCCN3C(=O)NC4(CCCc5ccccc54)C3=O)CC2)cc1 (racemic)
Given back: 134.3 to 135.1 °C

More entries:
Asked: In one line, give reported melting point of the entry CC(=O)c1ccc(N2CCN(CCCCn3ccn4c5c(=O)n(C)c(=O)n(C)c5nc34)CC2)cc1 .
Given back: 252 to 253 °C
